- assay_protocol: qHTS assay to identify small molecule antagonists of the thyroid receptor (TR) signaling pathway - cell viability counter screen (AID 743064); note: nearly all actives have a fitted effect of over 50% in size
- measurement_parameters: GH3.TRE-Luc viability, CellTiter-Fluor, 24 h; series mostly up to 70.3 µM
Inconclusive results are not listed. Active and inactive are the calls of the source. Calls come from the whole dose curve; as a rule, active = well fitted cell-killing curve with a large enough effect in the repeat runs; inconclusive = weak or mixed curves, or effect the other way; inactive = no such curve, though single readings can be large or run the other way.
Your answer must be one of the following: active, inactive

What was the test verdict on NCCc1cnc[nH]1 ? inactive

What was the test verdict on C=CCOCC(CC)(CO)COCC=C ? inactive

What was the test verdict on C[C@H]1C[C@@H](O)CC(C)(C)C1 ? inactive

What was the test verdict on O=c1n(CCO)c(=O)n(CCO)c(=O)n1CCO ? inactive

What was the test verdict on O=C1CCCCCCCCCCCN1 ? inactive

What was the test verdict on COC(=O)CCSCCC(=O)OC ? inactive

What was the test verdict on COC(=O)c1ccc(C)cc1C1=NC(C)(C(C)C)C(=O)N1 (stereo not given) ? inactive

What was the test verdict on Cc1ccc(=O)n(-c2ccccc2)c1 ? inactive

What was the test verdict on CS(=O)(=O)O ? inactive

What was the test verdict on CN(C(=O)c1c(O)c2ccccc2n(C)c1=O)c1ccccc1 ? inactive

What was the test verdict on N=C(N)c1ccc2cc(OC(=O)c3ccc(N=C(N)N)cc3)ccc2c1 ? inactive

What was the test verdict on Cn1cc(S(C)=O)c(=O)c2ccc(F)cc21 (stereo not given) ? inactive

What was the test verdict on CO/N=C(/C(=O)N[C@@H]1C(=O)N2C(C(=O)OCOC(=O)C(C)(C)C)=C(C)CS[C@H]12)c1csc(N)n1 ? inactive

What was the test verdict on CCc1nccnc1CC ? inactive

What was the test verdict on NS(=O)(=O)c1ccccc1Cl ? inactive

What was the test verdict on CC(=O)OC/C=C(\C)CC/C=C(\C)CCC=C(C)C ? inactive

What was the test verdict on O=C1CCCC(=O)C1 ? inactive

What was the test verdict on Cc1ccc(Cl)cc1Cl ? inactive

What was the test verdict on NC(=O)c1ccc(N)cc1 ? inactive

What was the test verdict on COc1cc(C(=O)N2CCCCCCC2)cc(OC)c1OC ? inactive

What was the test verdict on CN(C)CCCSc1ccccc1NC(=O)/C=C/c1ccccc1 ? active

What was the test verdict on OCCOc1ccc(OCCO)cc1 ? inactive

What was the test verdict on O=C(O)COc1nn(Cc2ccccc2)c2ccccc12 ? inactive

What was the test verdict on COC(C)(C)CCCC(C)CC=O (stereo not given) ? inactive

What was the test verdict on CC(C)CCCC(C)N (stereo not given) ? inactive

What was the test verdict on N[C@H]1CN(c2c(F)cc3c(=O)c(C(=O)O)cn(C4C[C@H]4F)c3c2Cl)CC12CC2 (stereo not given in full) ? inactive

What was the test verdict on C=C(C)CS(=O)(=O)O ? inactive

What was the test verdict on O=C(O)CNC(=O)c1ccc([N+](=O)[O-])cc1 ? inactive

What was the test verdict on CN1C(=O)N(C)C(O)C1O (stereo not given) ? inactive

What was the test verdict on CCOC(=O)c1ccc(C)cc1 ? inactive
